These measurements were taken from PubChem BioAssay.

Please provide measured composite z-score for the entries that follow.
Molecular target: Pro-neuregulin-1, membrane-bound isoform (Homo sapiens) (UniProt Q02297)
Sequence (Q02297 whole entry, looked up, canonical isoform): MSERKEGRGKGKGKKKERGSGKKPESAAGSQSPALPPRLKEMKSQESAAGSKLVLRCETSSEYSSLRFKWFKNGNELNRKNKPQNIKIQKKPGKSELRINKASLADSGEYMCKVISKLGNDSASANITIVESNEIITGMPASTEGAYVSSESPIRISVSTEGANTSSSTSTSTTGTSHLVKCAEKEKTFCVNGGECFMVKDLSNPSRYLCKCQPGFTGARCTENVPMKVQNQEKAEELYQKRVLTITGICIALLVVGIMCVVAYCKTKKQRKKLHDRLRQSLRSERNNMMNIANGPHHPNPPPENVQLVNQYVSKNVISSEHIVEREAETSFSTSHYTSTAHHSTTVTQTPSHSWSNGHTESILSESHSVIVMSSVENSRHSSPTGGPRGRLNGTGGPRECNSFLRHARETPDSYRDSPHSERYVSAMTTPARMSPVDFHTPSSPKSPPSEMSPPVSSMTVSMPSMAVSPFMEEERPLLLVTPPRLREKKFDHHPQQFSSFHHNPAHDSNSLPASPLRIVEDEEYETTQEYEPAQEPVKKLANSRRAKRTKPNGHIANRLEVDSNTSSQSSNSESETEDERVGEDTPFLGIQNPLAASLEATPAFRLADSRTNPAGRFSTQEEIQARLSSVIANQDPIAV
Assay: NRG1 binders on small-molecule microarrays, primary screen, psychiatric disease protein project, biochemical, small-molecule microarray, fluorescence 635/667 (AID 1075);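 further: score combines 667 nm spot fluorescence with signal to noise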
Conditions: NRG1 binding, 635 nm fluorescence, higher = more signal

Input line: Which composite z-score value is on record for CCOc1cc(C(O)C2C=CC3C(=O)N(c4ccccc4)C(=O)C3N2Nc2ccc(C#N)cc2)ccc1O (stereo not given) ?
Output line: 1

# per-item lookup of composite z-score; items listed below
1. COCCOC(=O)N1C(=O)[C@@]2(c3cc(C#CC4=CCCCC4)ccc31)[C@H](c1ccc(OCCO)cc1)N1[C@H](c3ccccc3)[C@H](c3ccccc3)OC(=O)[C@H]1[C@@H]2C(=O)NC[C@H](O)c1ccccc1
2. COC(=O)Cn1c(C(=O)N(C)C)cc2c1C[C@H]1CN(C(=O)c3ccccc3)[C@@](Cc3ccc(F)cc3)(C(=O)OC)[C@@H]21
3. CCOC(=O)C[C@H]1[C@H](OC(=O)c2cc3ccccc3oc2=O)[C@@H](NC(=O)c2ccc(-c3ccccc3)cc2)c2cc(OCCCO)ccc2N1C(=O)c1ccccc1
4. CCOC(=O)C[C@H]1[C@H](OC(=O)c2cc3ccccc3oc2=O)[C@@H](NC(=O)c2ccc(-c3ccccc3)cc2)c2cc(OCCCO)ccc2N1C(=O)c1ccc2ccccc2n1
5. C=C(C(=O)CC[C@@H](OC(C)=O)c1ccc(CO)o1)C(C)C
6. COc1ccc([Si](C)(C)[C@H]2[C@H](CCn3cc([C@H](O)c4ccccc4)nn3)O[C@@]3(C(=O)N(Cc4ccc(N5C(=O)c6cccc7cccc5c67)cc4)c4ccccc43)[C@@H]2C)cc1

Output line:
1: -0.118; 2: 0.88; 3: 0.687; 4: 0.751; 5: -0.116; 6: 0.45

# per-item lookup of composite z-score; items listed below
1. Cc1ccccc1C(O)C1C=CC2C(=O)N(C)C(=O)C2N1N(c1ccccc1)c1ccccc1 (stereo not given)
2. COCCOC(=O)N1C(=O)[C@@]2(c3cc(C#CC4=CCCCC4)ccc31)[C@H](C(N)=O)[C@H]1C(=O)O[C@H](c3ccccc3)[C@H](c3ccccc3)N1[C@@H]2c1ccccc1OCCO

Output line:
1: -0.53; 2: 1.47

Input line: Which composite z-score value is on record for COc1ccc([Si](C)(C)[C@@H]2[C@@H](CC(=O)N(CCO)Cc3ccccc3)O[C@]3(C(=O)N(Cc4cccc(N5CCOC5=O)c4)c4ccccc43)[C@H]2C)cc1 ?
Output line: 1.1
